Tested on: Stenotrophomonas maltophilia
Experiment: Antimicrobial activity against Stenotrophomonas maltophilia KJN1 harboring ampN with xylE-Gmomega cassette insertion by agar dilution method
Format: functional
Provide the recorded MIC for the entries that follow.

# input Could you tell me which MIC is on file for CO/N=C(\C(=O)N[C@@H]1C(=O)N2C(C(=O)O)=C(COC(N)=O)CS[C@H]12)c1ccco1 ?
# output 32 µg/mL

# input Do the same for CCN1CCN(C(=O)N[C@@H](C(=O)N[C@@H]2C(=O)N3[C@@H]2SC(C)(C)[C@@H]3C(=O)O)c2ccccc2)C(=O)C1=O please
# output 32 µg/mL

# input Do the same for CO[C@@]1(NC(=O)Cc2cccs2)C(=O)N2C(C(=O)O)=C(COC(N)=O)CS[C@@H]21 please
# output 32 µg/mL

# input Cool, now CC1(C)S[C@@H]2[C@H](NC(=O)C(C(=O)O)c3ccccc3)C(=O)N2[C@H]1C(=O)O (stereo not given in full)
# output 8 µg/mL

# input What would you report for C[C@H]1[C@H](NC(=O)/C(=N\OC(C)(C)C(=O)O)c2csc(N)n2)C(=O)N1S(=O)(=O)O ?
# output 32 µg/mL

* * *

System: Stenotrophomonas maltophilia
Experiment: Antimicrobial activity against Stenotrophomonas maltophilia KJ harboring pRK-NG plasmid by agar dilution method
Assay type: functional
quantity: MIC (µg/mL)
Expressed in µg/mL, but write only the number.

# input Tell me reported MIC for CO[C@@]1(NC(=O)Cc2cccs2)C(=O)N2C(C(=O)O)=C(COC(N)=O)CS[C@@H]21 , tested with Stenotrophomonas maltophilia.
# output 1020

# input Now this one: CCN1CCN(C(=O)N[C@@H](C(=O)N[C@@H]2C(=O)N3[C@@H]2SC(C)(C)[C@@H]3C(=O)O)c2ccccc2)C(=O)C1=O
# output 1020

# input Would you mind doing CC1(C)S[C@@H]2[C@H](NC(=O)C(C(=O)O)c3ccccc3)C(=O)N2[C@H]1C(=O)O (some centres undefined) as well?
# output 1020

* * *

Tested on: Stenotrophomonas maltophilia
Assay: Antimicrobial activity against Stenotrophomonas maltophilia KJN2 harboring ampN with xylE-Gmomega cassette insertion by agar dilution method
Type: functional
quantity: MIC

# input Report MIC for CCN1CCN(C(=O)N[C@@H](C(=O)N[C@@H]2C(=O)N3[C@@H]2SC(C)(C)[C@@H]3C(=O)O)c2ccccc2)C(=O)C1=O please.
# output 16 µg/mL

# input What do you get for CO[C@@]1(NC(=O)Cc2cccs2)C(=O)N2C(C(=O)O)=C(COC(N)=O)CS[C@@H]21 ?
# output 32 µg/mL

# input Cool, now CC1(C)S[C@@H]2[C@H](NC(=O)C(C(=O)O)c3ccccc3)C(=O)N2[C@H]1C(=O)O (stereo not given in full)
# output 2 µg/mL

# input Param item: C[C@H]1[C@H](NC(=O)/C(=N\OC(C)(C)C(=O)O)c2csc(N)n2)C(=O)N1S(=O)(=O)O
# output 16 µg/mL

# input What about this molecule? CO/N=C(\C(=O)N[C@@H]1C(=O)N2C(C(=O)O)=C(COC(N)=O)CS[C@H]12)c1ccco1
# output 32 µg/mL

* * *

Tested on: Stenotrophomonas maltophilia
Experiment: Antimicrobial activity against Stenotrophomonas maltophilia KJ by agar dilution method
Format: functional
quantity: MIC (µg/mL)
Please state the figure in µg/mL; there is no need to write the unit.

# input State the recorded MIC for this entry: CCN1CCN(C(=O)N[C@@H](C(=O)N[C@@H]2C(=O)N3[C@@H]2SC(C)(C)[C@@H]3C(=O)O)c2ccccc2)C(=O)C1=O
# output 1020

# input CC1(C)S[C@@H]2[C@H](NC(=O)C(C(=O)O)c3ccccc3)C(=O)N2[C@H]1C(=O)O (stereo not given in full) ?
# output 1020

# input Consider next the molecule CO[C@@]1(NC(=O)Cc2cccs2)C(=O)N2C(C(=O)O)=C(COC(N)=O)CS[C@@H]21 in the same way.
# output 1020
